Test system: Plasmodium falciparum
Test: Antiplasmodial against chloroquine-sensitive Plasmodium falciparum 3D7 assessed as inhibition of [3H]hypoxanthine incorporation after 24 hrs by scintillation counting
Format: functional, organism-based
measurement name: pIC50
Please express pIC50 as -log10 of the molar concentration.

For orientation, consider the following solved cases.
COc1ccc2nccc(C(c3nnnn3C(C)(C)C)N(C)C)c2c1 (stereo not drawn)	5.88
COc1ccc2nccc(C(c3nnn[nH]3)N3CCOCC3)c2c1 (stereo not drawn)	5.06
COc1ccc2nccc(C(c3nnnn3C(C)(C)C)N3CCOCC3)c2c1 (stereo not drawn)	6.01
COc1ccc2nccc(C(c3nnnn3C(C)(C)C)N3CCCC3)c2c1 (stereo not drawn)	4.86
COc1ccc2nccc(C(c3nnnn3C(C)(C)C)N3CCCCC3)c2c1 (stereo not drawn)	6.19

Consider the compound shown here: CCN(CC)C(c1ccnc2ccc(OC)cc12)c1nnnn1C(C)(C)C (stereo not drawn) What is its recorded pIC50?
5.62

Next up: C=C[C@H]1CN2CC[C@H]1C[C@H]2[C@H](O)c1ccnc2ccc(OC)cc12
9.15

Also COc1ccc2nccc(C(c3nnnn3C(C)(C)C)N3CCN(C)CC3)c2c1 (stereo not drawn) ?
4.77
